// values below are reported OD450
# assayed.target: T1, human MSLN-R3-his protein (human, UniProt Q13421 487-598)
# T1 construct: Made in HEK293E cells, purified on nickel column; also called hMSLN-R3-his; human MSLN-R3 protein; not shown: His tag
# T1 sequence (Q13421 495-606): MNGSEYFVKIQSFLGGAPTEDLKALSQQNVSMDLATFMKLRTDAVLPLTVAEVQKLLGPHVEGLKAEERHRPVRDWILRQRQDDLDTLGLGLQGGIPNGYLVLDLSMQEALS
# procedure.text: ELISA, coated antigen, antibody 10 nM
Please state the value as a number alone, without comment.

Solved entries:
>>> quantitative_result("S009-F4-94.15 chimeric antibody (antibody, human IgG1, kappa, V domains shown, Human-murine chimeric antibody: murine VH/VL on human IgG1 heavy and kappa light constant regions) VH: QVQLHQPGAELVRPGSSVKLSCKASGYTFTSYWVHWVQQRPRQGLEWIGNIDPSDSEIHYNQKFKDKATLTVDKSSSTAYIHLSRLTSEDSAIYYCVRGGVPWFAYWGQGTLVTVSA VL: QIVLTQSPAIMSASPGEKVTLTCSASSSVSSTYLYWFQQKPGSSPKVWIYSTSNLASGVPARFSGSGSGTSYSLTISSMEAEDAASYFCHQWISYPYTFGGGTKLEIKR")
0.07
>>> quantitative_result("S009-F6-76.1 chimeric antibody (antibody, human IgG1, kappa, V domains shown, Human-murine chimeric antibody, human IgG1/kappa constant regions) VH: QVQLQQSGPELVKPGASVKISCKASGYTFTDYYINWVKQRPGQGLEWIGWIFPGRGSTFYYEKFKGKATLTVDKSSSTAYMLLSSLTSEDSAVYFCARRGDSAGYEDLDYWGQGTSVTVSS VL: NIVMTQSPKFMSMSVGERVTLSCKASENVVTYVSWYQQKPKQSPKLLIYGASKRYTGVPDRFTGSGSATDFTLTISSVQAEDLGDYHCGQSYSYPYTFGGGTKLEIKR")
0.05
>>> quantitative_result("Tab106 (YP218, hIgG1) (antibody, V domains shown, Control: YP218 VH and VL recombined into human IgG1 CH and CL expression vectors; also called YP218 human IgG1 antibody) VH: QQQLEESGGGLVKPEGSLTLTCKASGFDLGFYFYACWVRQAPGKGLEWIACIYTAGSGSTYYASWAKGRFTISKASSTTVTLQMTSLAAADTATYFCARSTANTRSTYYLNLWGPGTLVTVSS VL: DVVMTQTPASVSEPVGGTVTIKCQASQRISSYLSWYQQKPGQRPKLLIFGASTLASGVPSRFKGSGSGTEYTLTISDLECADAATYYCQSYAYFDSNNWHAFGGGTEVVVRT")
1.69
>>> quantitative_result("S009-F5-9.16 chimeric antibody (antibody, human IgG1, kappa, V domains shown, Human-murine chimeric antibody, human IgG1/kappa constant regions) VH: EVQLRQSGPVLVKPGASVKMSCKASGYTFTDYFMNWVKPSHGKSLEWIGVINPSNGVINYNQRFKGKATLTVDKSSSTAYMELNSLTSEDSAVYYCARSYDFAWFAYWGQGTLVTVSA VL: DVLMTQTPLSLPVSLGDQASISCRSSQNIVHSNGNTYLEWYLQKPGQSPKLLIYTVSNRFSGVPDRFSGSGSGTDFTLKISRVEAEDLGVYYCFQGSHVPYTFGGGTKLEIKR")
2.36

[ask] Recall and state the measured OD450 for S009-F4-127.10 chimeric antibody (antibody, human IgG1, kappa, V domains shown, Human-murine chimeric antibody, human IgG1/kappa constant regions) VH: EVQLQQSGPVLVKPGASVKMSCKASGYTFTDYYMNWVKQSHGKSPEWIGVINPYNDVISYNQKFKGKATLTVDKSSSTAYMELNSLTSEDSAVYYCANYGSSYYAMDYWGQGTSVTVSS VL: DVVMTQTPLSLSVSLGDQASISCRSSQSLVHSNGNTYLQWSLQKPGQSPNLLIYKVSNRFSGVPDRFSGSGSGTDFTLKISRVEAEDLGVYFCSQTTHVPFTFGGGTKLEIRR .
[reply] 1.93

Each recorded value in this set is attributed to patent US20250250357A1.
